biological target: FQSE (SEQ ID NO:10)-specific binding sites in rat cortex membranes (rat); assay: displacement of [^3H]-FQSE by unlabeled FQSE, rat cortex membranes, 25 min at room temperature
EXPERIMENTAL READOUT: pIC50
Scale explanation: pIC50 corresponds to minus log10 of a concentration expressed in moles per litre.

Looking for the measured pIC50 of FQSE [FQSE (SEQ ID NO:10) peptide, unlabeled] , can you help?
5.70
